target: Dihydropteroate synthase (Escherichia coli K-12); assay: Inhibition of dihydropteroate synthase of Escherichia coli
In this section we review reported EII50 values for a set of compounds.
metric: EII50

{"columns": ["line_notation", "reported_result"],
 "data": [
  ["COC(=O)c1ccc(S(=O)(=O)c2ccc(N)cc2)cc1", 34],
  ["Cc1cc(C)c(S(=O)(=O)c2ccc(N)cc2)c(C)c1", 1.69],
  ["CCNc1ccc(S(=O)(=O)c2ccc(N)cc2)cc1", 4.53],
  ["Nc1ccc(S(=O)(=O)c2ccc(Cl)cc2)cc1", 20.8],
  ["COc1ccc(S(=O)(=O)c2ccc(N)cc2)cc1", 6.6],
  ["Nc1ccc(S(=O)(=O)c2ccccc2)cc1", 9.56]
]}

====

assay: pKa value by spectrophotometrically at pH 8.2; type: physicochemical
metric: pKa

{"columns": ["line_notation", "metric", "reported_result"],
 "data": [
  ["Nc1ccc(S(=O)(=O)c2ccc(C(=O)O)cc2)cc1", "pKa", 3.6]
]}

====

target: Dihydropteroate synthase (Escherichia coli K-12) (UniProt P0AC13); experiment: Inhibition of dihydropteroate synthase of Escherichia coli
Sequence (P0AC13 whole entry): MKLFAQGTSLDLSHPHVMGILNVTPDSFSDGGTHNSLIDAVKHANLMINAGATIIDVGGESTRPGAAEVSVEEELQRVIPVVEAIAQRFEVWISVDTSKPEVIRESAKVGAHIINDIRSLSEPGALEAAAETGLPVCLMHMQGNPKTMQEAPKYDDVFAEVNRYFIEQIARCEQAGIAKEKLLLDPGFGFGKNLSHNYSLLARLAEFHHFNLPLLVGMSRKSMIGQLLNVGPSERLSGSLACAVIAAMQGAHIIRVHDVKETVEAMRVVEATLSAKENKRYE
hey, just use t if measured EII50 is less than 6, otherwise f

{"columns": ["line_notation", "tested_system", "assigned_label"],
 "data": [
  ["Nc1ccc(S(=O)(=O)c2ccccc2N)cc1", "Dihydropteroate synthase (Escherichia coli K-12) (UniProt P0AC13)", "t"],
  ["Nc1ccc(S(=O)(=O)c2ccc([N+](=O)[O-])cc2[N+](=O)[O-])cc1", "Dihydropteroate synthase (Escherichia coli K-12) (UniProt P0AC13)", "f"],
  ["CN(C)c1ccc(S(=O)(=O)c2ccc(N)cc2)cc1", "Dihydropteroate synthase (Escherichia coli K-12) (UniProt P0AC13)", "t"],
  ["Nc1ccc(S(=O)(=O)c2ccc([N+](=O)[O-])cc2)cc1", "Dihydropteroate synthase (Escherichia coli K-12) (UniProt P0AC13)", "f"],
  ["Nc1ccc(S(=O)(=O)c2ccc(NC=O)cc2)cc1", "Dihydropteroate synthase (Escherichia coli K-12) (UniProt P0AC13)", "t"],
  ["Cc1ccc(S(=O)(=O)c2ccc(N)cc2)c(C)c1", "Dihydropteroate synthase (Escherichia coli K-12) (UniProt P0AC13)", "t"],
  ["NC(=O)c1ccc(S(=O)(=O)c2ccc(N)cc2)cc1", "Dihydropteroate synthase (Escherichia coli K-12) (UniProt P0AC13)", "f"],
  ["COc1cc(OC)c(S(=O)(=O)c2ccc(N)cc2)c(OC)c1", "Dihydropteroate synthase (Escherichia coli K-12) (UniProt P0AC13)", "f"],
  ["CCN(CC)c1ccc(S(=O)(=O)c2ccc(N)cc2)cc1", "Dihydropteroate synthase (Escherichia coli K-12) (UniProt P0AC13)", "t"],
  ["Nc1ccc(S(=O)(=O)c2c(Cl)cc(Cl)cc2Cl)cc1", "Dihydropteroate synthase (Escherichia coli K-12) (UniProt P0AC13)", "t"],
  ["Nc1ccc(S(=O)(=O)c2ccc(Br)cc2)cc1", "Dihydropteroate synthase (Escherichia coli K-12) (UniProt P0AC13)", "f"],
  ["CCN(CC)C(=O)c1ccc(S(=O)(=O)c2ccc(N)cc2)cc1", "Dihydropteroate synthase (Escherichia coli K-12) (UniProt P0AC13)", "f"],
  ["Nc1ccc(S(=O)(=O)c2ccc(F)cc2)cc1", "Dihydropteroate synthase (Escherichia coli K-12) (UniProt P0AC13)", "f"],
  ["Nc1ccc(S(=O)(=O)c2ccc(O)cc2O)cc1", "Dihydropteroate synthase (Escherichia coli K-12) (UniProt P0AC13)", "t"],
  ["Nc1ccc(S(=O)(=O)c2ccc(N)cc2)cc1", "Dihydropteroate synthase (Escherichia coli K-12) (UniProt P0AC13)", "t"],
  ["N#Cc1ccc(S(=O)(=O)c2ccc(N)cc2)cc1", "Dihydropteroate synthase (Escherichia coli K-12) (UniProt P0AC13)", "f"],
  ["Nc1ccc(S(=O)(=O)c2ccc(NO)cc2)cc1", "Dihydropteroate synthase (Escherichia coli K-12) (UniProt P0AC13)", "t"],
  ["Nc1ccc(S(=O)(=O)c2ccc(Cl)cc2Cl)cc1", "Dihydropteroate synthase (Escherichia coli K-12) (UniProt P0AC13)", "t"],
  ["COc1ccc(S(=O)(=O)c2ccc(N)cc2)c(OC)c1", "Dihydropteroate synthase (Escherichia coli K-12) (UniProt P0AC13)", "t"],
  ["CC(=O)c1ccc(S(=O)(=O)c2ccc(N)cc2)cc1", "Dihydropteroate synthase (Escherichia coli K-12) (UniProt P0AC13)", "f"],
  ["CC(=O)Nc1ccc(S(=O)(=O)c2ccc(N)cc2)cc1", "Dihydropteroate synthase (Escherichia coli K-12) (UniProt P0AC13)", "t"],
  ["Nc1ccc(S(=O)(=O)c2ccc(N)cc2N)cc1", "Dihydropteroate synthase (Escherichia coli K-12) (UniProt P0AC13)", "t"],
  ["Nc1ccc(S(=O)(=O)c2ccc(C(=O)O)cc2)cc1", "Dihydropteroate synthase (Escherichia coli K-12) (UniProt P0AC13)", "t"]
]}
